The measured values listed here are drawn from paper PMC8578629.

- System: HaCaT cells
- protocol details: Cellular uptake by HaCaT cells (overall uptake, adsorption/absorption ratio, kinetics)
- Assay type: in vitro ADME, human
- setup conditions: initial concentration 50 μM, 4 h
Overview of recorded % Uptake ± SEM for various molecules

{"molecule": "CCN(CC)c1ccc2ccc(-c3ccc(N)cc3)[o+]c2c1", "% Uptake ± SEM [%]": 2.192}
{"molecule": "CCN(CC)c1ccc2ccc(-c3ccc(N(C)C)cc3)[o+]c2c1", "% Uptake ± SEM [%]": 3.660}
{"molecule": "CCN(CC)c1ccc2ccc(/C=C/c3ccc(N(C)C)cc3)[o+]c2c1", "% Uptake ± SEM [%]": 4.091}
{"molecule": "C=CC1=C(C)c2cc3[nH]c(cc4nc(cc5[nH]c(cc1n2)c(C)c5CCC(=O)O)C(CCC(=O)O)=C4C)c(C)c3C=C [PpIX, protoporphyrin IX, reference compound]", "% Uptake ± SEM [%]": 0.667}
